test system: HOP-62; assay: NCI tumour cell line growth inhibition, 48 h
The source made the active and inactive calls. Cut-off read from the data, not from the text of the source: active = GI50 up to about 1.1 µM and inactive = higher.
Exercise: for every item that follows, state its recorded GI50.

Please review the following examples before continuing.
- Molecule: "C/C(=N\\NC(=S)NC(CCC(=O)O)C(=O)O)c1ccccn1 (configuration not stated)"
  Measured value: "> 100 µM (inactive)"
- Molecule: "CCOC(=O)c1cnc2oc(/C=N/N3CC(CN4CCOCC4)OC3=O)cc2c1O (configuration not stated)"
  Measured value: "> 100 µM (inactive)"
- Molecule: "S=C1N=C(Cl)/C(=C\\c2ccco2)N1"
  Measured value: "> 100 µM (inactive)"
- Molecule: "Cc1ccc(C(=O)/C=C2/Nc3ccc([N+](=O)[O-])cc3N/C2=C/C(=O)c2ccc(C)cc2)cc1"
  Measured value: "15.3 µM (inactive)"
- Molecule: "CCCN(CCC)CCc1ccc(OC2=CCN(C)CC2)cc1"
  Measured value: "> 100 µM (inactive)"

Dear colleague, could you please provide GI50 for the molecules listed below?
1. O=C(CCc1ccc(O)c(O)c1)NCCc1cc(OCc2ccccc2)cc(OCc2ccccc2)c1
2. CC(CCC(=O)O)[C@H]1CCC2[C@H]3C(CC(=O)[C@@]21C)[C@@]1(C)CCC(O)C[C@H]1C[C@@H]3O (some centres not stated)
3. CC(C)(C)C(=O)Nc1cccc2oc(-c3ccccc3)cc12
4. COc1ccc(C[C@H](N)C(=O)N2C[C@H](CO)C[C@H](n3cnc4c(N(C)C)ncnc43)C2)cc1

13.1 µM (inactive)
> 100 µM (inactive)
> 100 µM (inactive)
> 100 µM (inactive)

Dear colleague, could you please provide GI50 for the molecules listed below?
1. CC(C)CNC(=O)c1c(NC(=O)c2ccccc2)sc2[nH]c(=O)n(-c3ccccc3)c(=O)c12
2. OC(CC(c1ccccc1)c1ccc(Cl)cc1)c1ccc(Cl)cc1 (configuration not stated)
3. Cc1c(/N=N/c2ccccc2)c(-c2ccccc2)n(C2OC(CO)C(O)C(O)C2O)c(=S)c1C#N (configuration not stated)
4. Cc1cc(NS(=O)(=O)c2ccc(NC(=O)c3cccc4c(Nc5ccc(S(=O)(=O)N=C(N)N)cc5)c5ccccc5nc34)cc2)no1
5. Oc1ccc(O)c(Cc2ccccc2)c1

1: 15.3 µM (inactive); 2: 36.4 µM (inactive); 3: 7.14 µM (inactive); 4: > 100 µM (inactive); 5: 27.9 µM (inactive)

Dear colleague, could you please provide GI50 for the molecules listed below?
1. CC(C)(C)C1=NN=C2c3ccccc3C(=O)C21 (configuration not stated)
2. CCc1ccc(Cc2ccc(CC)c(NC(=O)C(=O)C3NC(=S)NC3=O)c2CC)c(CC)c1NC(=O)C(=O)C1NC(=S)NC1=O (configuration not stated)
3. Nc1nc(N)c2ncn(Cc3ccccc3)c2n1

> 100 µM (inactive)
> 100 µM (inactive)
> 100 µM (inactive)

* * *

tested on: M14; experiment: NCI tumour cell line growth inhibition, 48 h
Calls of active or inactive are those of the source. Rule as the data show it: active = GI50 up to about 1.1 µM and inactive = higher.
Measured quantity: GI50

- Compound: "Cc1cn(C(CO)OC(CO)CN(O)C2C3CC4CC(C3)CC2C4)c(=O)[nH]c1=O (stereo not given)"
  GI50: "> 100 µM (inactive)"

Dear colleague, could you please provide GI50 for the compounds listed below?
1. Cc1nc(O)c2c3c(sc2n1)CCCC3
2. COc1ccc(C2=NN(C(=N)S)C(c3ccccc3)C2)cc1 (stereo not given)
3. COc1cc(/C=C2\S/C(=N/Nc3nc(-c4ccc(Br)cc4)cs3)NC2=O)cc(OC)c1OC
4. O=C(Cc1ccccc1)NN1C(=O)/C(=C\c2cccc(O)c2)S/C1=N\c1ccccc1
5. [O-][S+]1c2ccccc2SCSc2ccccc21
6. CC(C)(C)c1cc2c(O)c(c1)C(c1ccccc1)c1cc(C(C)(C)C)cc(c1O)Cc1cc(C(C)(C)C)cc(c1O)C(c1ccccc1)c1cc(C(C)(C)C)cc(c1O)C2 (stereo not given)
7. COc1ccccc1/[N+]([O-])=C/c1ccccc1OC(=S)S
8. Clc1ccc(C[P+]2(c3ccccc3)CCCCC2)cc1.[O-][Cl+3]([O-])([O-])[O-]

1. > 100 µM (inactive)
2. 41 µM (inactive)
3. 15.6 µM (inactive)
4. > 100 µM (inactive)
5. > 100 µM (inactive)
6. > 100 µM (inactive)
7. 41.1 µM (inactive)
8. 53.8 µM (inactive)

GET GI50 | system: M14 | item: "Cc1ccc2nc(NC(=O)C(=O)C3C(=O)NC(=S)NC3=O)sc2c1"
> 100 µM (inactive)

* * *

test system: OVCAR-5; experiment: NCI tumour cell line growth inhibition, 48 h
Activity calls are given as the source filed them. Cut-off read from the data, not from the text of the source: active = GI50 up to about 1.1 µM and inactive = higher.
Response enum: YES (active), NO (inactive)

Example entries begin here.
- Compound: "CO/C(=N\\N=C\\c1ccc(Cl)c(Cl)c1)c1ccncc1"
  Assigned category: "NO"
- Compound: "O=C(O)CC1C(=O)OC2C3COC(=O)c4cc(O)c(O)c(O)c4-c4c(cc(O)c(O)c4O)C(=O)OC2C(OC(=O)c2cc(O)c(O)c4c2C1C(O)C(=O)O4)C(OC(=O)c1cc(O)c(O)c(O)c1)O3 (centres undefined)"
  Assigned category: "NO"
- Compound: "CNC(=O)c1nn[nH]c1Sc1c([N+](=O)[O-])ncn1C"
  Assigned category: "NO"
- Compound: "COc1ccc2c(c1)-c1nn(CCN(C)C)c3ccc(C(=O)NCCCN(C)CCCNC(=O)c4ccc5c6c(c7cc(OC)ccc7nc46)NN5CCN(C)C)c(c13)N2"
  Assigned category: "YES"
- Compound: "O=c1cc(-c2ccccc2)[nH]c2ccc(N3CCCCC3)cc12"
  Assigned category: "NO"
- Compound: "COc1ccc(-c2c3c(nc4nc(SC)nc(SC)c24)CCCC3)cc1OC"
  Assigned category: "NO"

Hi, do you know how "CN(C)c1nc(N)c(C#N)c(C#N)c1C#N" came out in this test?
NO

Hi, do you know how NC12CCC(CC1=O)C2 (centres undefined) came out in this test?
NO

Hi, do you know how CC(C)C1=CC23CCC4C(C)(C(=O)O)CCCC4(C)C2CC1C1C(=O)N(c2ccccc2)C(=O)C13 (centres undefined) came out in this test?
NO

* * *

system: PC-3; assay: NCI tumour cell line growth inhibition, 48 h
Activity calls are given as the source filed them. Cut-off read from the data, not from the text of the source: active = GI50 up to about 1.1 µM and inactive = higher. Where a SMILES comes first, the peptide text is derived from it. The star is where a group is joined. Cbz = O=C(OCc1ccccc1)*
Response enum: yes (1) (active), no (0) (inactive)

Example entries begin here.
- Compound: "COC(=O)c1ccc(Oc2nc3ccc(C(F)(F)F)cc3nc2-c2ccccc2)cc1"
  Assigned category: "no (0)"
- Compound: "CCCS(=O)(=O)Nc1ccc(Nc2c3ccccc3nc3ccccc23)c(OC)c1"
  Assigned category: "no (0)"
- Compound: "CC(=O)O[C@H]1C(=O)O[C@@H]2C[C@H]3C(C)=CC(=O)[C@@H](O)[C@]3(C)[C@H]3[C@@]4(O)OC[C@]32[C@@H]1[C@@H](C)[C@H]4O"
  Assigned category: "yes (1)"

Hi, do you know how COC(=O)C1C=CN(N(C)C)C2=C1C(=O)c1c(O)cccc1C2=O (configuration not stated) came out in this test?
no (0)

Hi, do you know how CCOC(=O)CC(=O)N(c1ccc(OC)cc1)C(C(=O)OC)c1ccccc1 (configuration not stated) came out in this test?
no (0)

Hi, do you know how O=C1c2ccccc2-c2c1c(-c1ccccc1)c1n2C2(C(=O)c3ccccc3C2=O)C2C(=O)N(c3ccccc3)C(=O)C12 (configuration not stated) came out in this test?
no (0)

Hi, do you know how NCCC(=O)N[C@@H](Cc1cc(O)c(O)c(SCC(NC(=O)CC[C@H](N)C(=O)O)C(=O)NCC(=O)O)c1)C(=O)O (some centres not stated) came out in this test?
no (0)

Hi, do you know how "O=C1C=CC(=O)C1(Br)Br" came out in this test?
no (0)

Hi, do you know how "COC1=C(OC)C(=O)C(Cc2c(C)nc3sccn23)=C(C)C1=O" came out in this test?
no (0)

Hi, do you know how "N#Cc1cnn2c1n[n+]([O-])c1ccc(Cl)cc12" came out in this test?
no (0)

Hi, do you know how "O=C1CN(c2cccc(Cl)c2)C(=O)CN1CCN1CC(=O)N(c2cccc(Cl)c2)CC1=O" came out in this test?
no (0)

Hi, do you know how "COc1ccc(/C=C(\C(=O)OCC(C)C)c2ccc(OC)c(OC)c2)cc1OC" came out in this test?
no (0)

Hi, do you know how "Cn1c(=O)c2c(n(C)c1=O)n1c(=O)c3ccccc3nc1n2C" came out in this test?
no (0)

Hi, do you know how "OC(CC(CC(O)(C(F)(F)Cl)C(F)(F)Cl)=NNc1ccccc1)(C(F)(F)Cl)C(F)(F)Cl" came out in this test?
no (0)

Hi, do you know how "COc1ccc(/C=C/C(=O)C(C)(C)Br)cc1" came out in this test?
no (0)

Hi, do you know how "COc1ccc(/C=C/c2ccnc3ccccc23)cc1" came out in this test?
no (0)

Hi, do you know how CC#CC(O)(C(=O)OCCCN(C)C)C1CCCCC1 (configuration not stated) came out in this test?
no (0)

Hi, do you know how CCOC(=O)CCC(NC(=O)C(Cc1ccccc1)NC(=O)OCc1ccccc1)C(=O)OCC (stereo not drawn) (Cbz-Phe-Glu(OEt)-OEt; configuration not given here) came out in this test?
no (0)

Hi, do you know how C=C(c1ccccc1)C1ON(C)CCc2cc(OC)c(OC)cc21 (configuration not stated) came out in this test?
no (0)

Hi, do you know how "N#Cc1c(-c2ccc([N+](=O)[O-])cc2)c(C#N)c(=O)n(NS(=O)(=O)c2ccccc2)c1S" came out in this test?
no (0)

Hi, do you know how "Cc1ccc(C(=O)/C=C2/Nc3ccc([N+](=O)[O-])cc3N/C2=C/C(=O)c2ccc(C)cc2)cc1" came out in this test?
no (0)

Hi, do you know how "O=c1/c(=C/c2ccc([N+](=O)[O-])o2)sc2n1[C@@H](c1ccc(Cl)cc1)C=C(c1cc(F)c(Cl)cc1Cl)N=2" came out in this test?
no (0)

Hi, do you know how "COC(=O)[C@@H]1CN(C(=O)Cc2ccccc2)C(=O)N1" came out in this test?
no (0)

Hi, do you know how O=C1C2=C(c3ccccc31)C(c1ccccc1)N1C(=O)CSC1=N2 (configuration not stated) came out in this test?
no (0)

Hi, do you know how "O=C(CCCc1cccc2[nH]c3c(c12)CN(Cc1ccccc1)CC3)c1ccc(F)cc1" came out in this test?
no (0)

Hi, do you know how "C/C1=C\CC[C@@]2(C)O[C@@H]2C[C@@H]2[C@H](C/C(C)=C/CC1)OC(=O)[C@]21CO1" came out in this test?
no (0)

Hi, do you know how "COCN1C(=O)[C@@H]2CCCN2C(=O)c2ccc(Cl)cc21" came out in this test?
no (0)
